Exercise: for every item that follows, state its recorded concentration at 4 h.
experiment: Plasma concentration in CF1 mouse at 50 mg/kg, po after 4 hrs; format: ADME, organism-based; design: dose 50 mg/kg, route oral
Just the number please, in µM, no unit attached.

Fill in concentration at 4 h for record CC(C)CC(C(=O)O)c1ccc(C(c2ccc(F)cc2)N2CCCCC2)c(-c2ccc(C(F)(F)F)cc2)c1 (stereo not drawn)
32.2

Fill in concentration at 4 h for record O=C(O)Cc1ccc(C(c2ccc(F)cc2)N2CCC(C(F)(F)F)CC2)c(-c2ccc(C(F)(F)F)cc2)c1 (stereo not drawn)
26

Fill in concentration at 4 h for record CC(C)(C)c1ccc(-c2cc(CC(=O)O)ccc2C(c2ccc(F)cc2)N2CCC(C(F)(F)F)CC2)cc1 (stereo not drawn)
6.3
